Tested on: healthy participants
Assay: Phase 1 Part A single ascending dose (SAD) and FE/pH cohort: safety, blood pressure
Type: in vivo, human
Conditions: SAD 100 mg, D 1 2 h
endpointName: Mean DBP (mmHg)
Write the answer as a number in mmHg, unit excluded.

Give the observed Mean DBP of CCCN(C)C(=O)OCc1c(-c2ccc(O[C@H]3CCC[C@H](C(=O)O)C3)c(C)n2)nnn1C for healthy participants. 59

* * *

System: healthy participants
Assay: Phase 1 Part B multiple ascending dose (MAD): blood pressure
Format: in vivo, human
Conditions: MAD 30 mg BID, D 14 317 h
endpointName: Mean DBP (mmHg)
Field: numeric (mmHg). Do not append units.

For the compound CCCN(C)C(=O)OCc1c(-c2ccc(O[C@H]3CCC[C@H](C(=O)O)C3)c(C)n2)nnn1C [Compound A] , report Mean DBP. 61

* * *

System: healthy participants
Test: Phase 1 Part A single ascending dose (SAD) and FE/pH cohort: safety, blood pressure
Assay type: in vivo, human
Details: 100 mg Fasted, D 1 8 h
endpointName: Mean DBP (mmHg)
Reply with just the number (in mmHg).

Consider the compound CCCN(C)C(=O)OCc1c(-c2ccc(O[C@H]3CCC[C@H](C(=O)O)C3)c(C)n2)nnn1C and give its recorded Mean DBP. 63

* * *

Tested on: healthy participants
Assay: Phase 1 Part B multiple ascending dose (MAD): blood pressure
Type: in vivo, human
Conditions: MAD 125 mg BID, D 1 2 h
endpointName: Mean DBP
# include the unit after the value

Specify reported Mean DBP for the compound shown: CCCN(C)C(=O)OCc1c(-c2ccc(O[C@H]3CCC[C@H](C(=O)O)C3)c(C)n2)nnn1C [Compound A] 62.3 mmHg

* * *

System: healthy participants
Test: Phase 1 Part A single ascending dose (SAD) and FE/pH cohort: safety, blood pressure
Assay type: in vivo, human
Conditions: SAD 3 mg, D 2 24 h
endpointName: Mean DBP (mmHg)
// note: answer is a bare numeric in mmHg

Lab note: healthy participants assay, enter Mean DBP for CCCN(C)C(=O)OCc1c(-c2ccc(O[C@H]3CCC[C@H](C(=O)O)C3)c(C)n2)nnn1C here 68.7

* * *

Tested on: healthy participants
Assay: Phase 1 Part B multiple ascending dose (MAD): blood pressure
Type: in vivo, human
Conditions: MAD 30 mg BID, D 1 4 h
endpointName: Mean DBP (mmHg)
Give your result in mmHg as a bare value.

Indicate the recorded Mean DBP value for this compound: CCCN(C)C(=O)OCc1c(-c2ccc(O[C@H]3CCC[C@H](C(=O)O)C3)c(C)n2)nnn1C [Compound A] 62.7

* * *

Test system: healthy participants
Test: Phase 1 Part B multiple ascending dose (MAD): blood pressure
Format: in vivo, human
Conditions: MAD 30 mg QD, D 2 24 h
endpointName: Mean DBP (mmHg)
Just the number in mmHg, nothing appended.

Report value only: Mean DBP, healthy participants, CCCN(C)C(=O)OCc1c(-c2ccc(O[C@H]3CCC[C@H](C(=O)O)C3)c(C)n2)nnn1C [Compound A] 67.3

* * *

Test system: healthy participants
Test: Phase 1 Part A single ascending dose (SAD) and FE/pH cohort: safety, blood pressure
Format: in vivo, human
Details: 100 mg Fed, D 1 8 h
Protocol: The study was performed in 3 parts in 112 healthy male and female participants, including 24 Japanese participants. Female participants were to be not of childbearing potential. […]
endpointName: Mean DBP (mmHg)
# output: bare number, implied unit mmHg

Specify measured Mean DBP for CCCN(C)C(=O)OCc1c(-c2ccc(O[C@H]3CCC[C@H](C(=O)O)C3)c(C)n2)nnn1C . 58.8
